Molecular target: human κ opioid receptor (Homo sapiens, UniProt P41145)
Sequence (P41145 whole entry): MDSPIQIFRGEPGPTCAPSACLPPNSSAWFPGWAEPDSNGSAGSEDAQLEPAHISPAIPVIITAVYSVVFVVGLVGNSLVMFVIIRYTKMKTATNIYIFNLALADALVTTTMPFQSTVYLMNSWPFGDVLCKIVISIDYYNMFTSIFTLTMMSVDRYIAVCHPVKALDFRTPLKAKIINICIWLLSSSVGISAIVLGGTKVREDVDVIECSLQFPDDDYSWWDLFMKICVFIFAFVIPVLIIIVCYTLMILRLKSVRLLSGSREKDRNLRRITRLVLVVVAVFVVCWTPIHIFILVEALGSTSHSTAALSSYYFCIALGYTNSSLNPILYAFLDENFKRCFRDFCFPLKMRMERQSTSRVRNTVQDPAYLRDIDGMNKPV
Assay: κ opioid receptor agonist activity test in GTP binding activity measurement system ([35S]GTPγS binding)
Assay type: biochemical
Details: test compound concentration 10^−9 M; binding of 10^−6 M (−)-U50488 = 100%; human κ opioid receptor membrane preparation; average of duplicate
Where a name gives a salt, the structure may show the parent alone.
I'd appreciate it if you could label each record using [^35S]GTP γ S binding % and these ranges: band A: < 60%; band B: ≥ 60% and < 70%; band C: ≥ 70%

| Compound | Category label |
| --- | --- |
| COCOCCN(CCCOc1ccc(OC)cc1C1Sc2cc(Cl)ccc2N1C(C)=O)C(C)C (stereo not drawn) | band B |
| CCN(CCCOc1ccc(OC)cc1C1Sc2cc(Cl)ccc2N1C(C)=O)C(C)C (single isomer, unassigned; (+)) [Compound No. 9-10, Hydrochloride] | band C |
| COc1ccc(OCCCN(CCO)C(C)C)c(C2Sc3ccc(Cl)cc3N2C(C)=O)c1 (stereo not drawn) [Compound No. 5-3, Hydrochloride] | band A |
| COc1ccc(OCCCN(C(C)C)C(C)C)c(C2Sc3cc(Cl)ccc3N2C(C)=O)c1 (single isomer, unassigned; (+)) [Compound No. 9-11, Hydrochloride] | band A |
| COCCOCOCCN(CCCOc1ccc(OC)cc1C1Sc2cc(Cl)ccc2N1C(C)=O)C(C)C (stereo not drawn) | band A |
| COc1ccc(OCCCN(CCO)C(C)C)c(C2Sc3ccc(C(F)(F)F)cc3N2C(C)=O)c1 (stereo not drawn) [Compound No. 4-2, Hydrochloride] | band B |

Alright, here's another compound for you.
INPUT: Which of the defined bands does the recorded [^35S]GTP γ S binding % of COc1ccc(OCCCN(C)C(C)C)c(C2Sc3cc(Cl)ccc3N2C(C)=O)c1 (single isomer, unassigned; (+)) [Compound No. 9-12, Hydrochloride] sit within?
OUTPUT: band C
